Data credit: patent US20250268894A1

- Target Or Test System: KRAS G12D-BRAF complex (Homo sapiens (Human), UniProt P01116+P62937, G12D)
- Sequence (P01116-2 other isoform, or with tags, fused parts or gaps G12D): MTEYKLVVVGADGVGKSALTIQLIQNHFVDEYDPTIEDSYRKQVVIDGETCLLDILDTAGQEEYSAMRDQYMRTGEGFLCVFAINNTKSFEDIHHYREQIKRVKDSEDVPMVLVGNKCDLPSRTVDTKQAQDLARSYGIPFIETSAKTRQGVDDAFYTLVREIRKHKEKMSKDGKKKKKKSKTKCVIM
- Sequence (P62937 whole entry): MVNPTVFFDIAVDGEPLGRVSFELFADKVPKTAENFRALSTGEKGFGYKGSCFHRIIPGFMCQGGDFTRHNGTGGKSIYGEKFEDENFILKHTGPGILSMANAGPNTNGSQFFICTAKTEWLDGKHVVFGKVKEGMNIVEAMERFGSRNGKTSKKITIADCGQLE
- Procedure Text: KRAS-BRAF with CYPA (500 nM) interaction assay (TR-FRET), G12D
Could you please report measured pIC50 for the items listed next?
A value of pIC50 is the negative decimal logarithm of a concentration given in moles per litre.

*Q* Answer with the recorded pIC50 for the compound listed here: CO[C@@H](C)c1ncc(N2CCN(C)CC2)cc1-c1c2c3cc(c(F)cc3n1CC(F)(F)F)-c1csc(n1)C[C@H](NC(=O)[C@H](C(C)C)N(C)C(=O)N1CC(N(C)C)C1)C(=O)N1CCC[C@H](N1)C(=O)OCC(C)(C)C2 (atropisomer, axis not shown; (M))
*A* 6.83

*Q* Answer with the recorded pIC50 for the compound listed here: CCn1c(-c2cc(N3CCN(C)CC3)cnc2[C@H](C)OC)c2c3cc(c(F)cc31)-c1csc(n1)C[C@H](NC(=O)[C@H](C(C)C)N(C)C(=O)N1CCOCC1)C(=O)N1CCC[C@H](N1)C(=O)OCC(C)(C)C2 (atropisomer, axis not shown; (M))
*A* 6.73

*Q* Answer with the recorded pIC50 for the compound listed here: CCn1c(-c2cc(N3CCOCC3)cnc2[C@H](C)OC)c2c3cc(c(F)cc31)-c1csc(n1)C[C@H](NC(=O)[C@H](C(C)C)N(C)C(=O)N1CC(F)(F)C1)C(=O)N1CCC[C@H](N1)C(=O)OCC(C)(C)C2 (atropisomer, axis not shown; (M))
*A* 6.33

*Q* Answer with the recorded pIC50 for the compound listed here: CCn1c(-c2cc(N3CCN(CC(F)(F)F)CC3)cnc2[C@H](C)OC)c2c3cc(c(F)cc31)-c1csc(n1)C[C@H](NC(=O)[C@H](C(C)C)N(C)C(=O)N1CCOCC1)C(=O)N1CCC[C@H](N1)C(=O)OCC(C)(C)C2 (atropisomer, axis not shown; (M))
*A* 6.65

*Q* Answer with the recorded pIC50 for the compound listed here: CO[C@@H](C)c1ncc(N2CCN(CC(F)(F)F)CC2)cc1-c1c2c3cc(c(F)cc3n1CC(F)(F)F)-c1csc(n1)C[C@H](NC(=O)[C@H](C(C)C)N(C)C(=O)N1CC(N(C)C)C1)C(=O)N1CCC[C@H](N1)C(=O)OCC(C)(C)C2 (atropisomer, axis not shown; (M))
*A* 6.85
